Target: immunoproteasome subunit LMP7 (Homo sapiens)
Construct: Lysate from the human acute lymphoblastic leukemia cell line, MOLT-4; endogenous in cells; host or cells: MOLT-4
Assay: Proteasome active-site ELISA (ProCISE), LMP7, MOLT-4 lysate
Assay type: biochemical
Conditions: MOLT4 lysate, 1 h continuous treatment, 25° C.
Each entry below carries its reported IC50.
Could you give me the number in nM? Just the number is fine.

[[record]]
compound_string = "COc1ccc(C[C@H](NC(=O)[C@H](CO)NC(=O)CN2CCOCC2)C(=O)N[C@@H](Cc2ccccc2)C(=O)[C@@]2(C)CO2)cc1"
recorded_result = 43.1


Input line: I am curious: what IC50 value has been reported for `CCc1ccc(C[C@H](NC(=O)[C@H](C)NC(=O)CN2CCOCC2)C(=O)N[C@@H](CC2=CCCC2)C(=O)[C@@]2(C)CO2)cc1O` ?
Output line: 46.2

Input line: # iterate: `COc1ccc(C[C@H](NC(=O)[C@@H](C)NC(=O)[C@H]2CC[C@](C)(O)CC2)C(=O)N[C@@H](CC2=CCCC2)C(=O)[C@@]2(C)CO2)cc1`
Output line: 59.9
